Test system: NCI-H838
method.description: relative viability (nuclei count vs DMSO), 5 days (fraction); higher = more cells survive
experimental.context: first compound 0.08 µM
Simple rule here: relative viability less than 0.4 is true, otherwise false.

1) Cc1cnc(-c2cnc(NCCNc3ccc(C#N)cn3)nc2-c2ccc(Cl)cc2Cl)[nH]1 + Cc1cc(Nc2cc(N3CCN(C)CC3)nc(Sc3ccc(NC(=O)C4CC4)cc3)n2)n[nH]1 [Tozasertib] (partner 0.1 µM) ... true
2) Cc1cnc(-c2cnc(NCCNc3ccc(C#N)cn3)nc2-c2ccc(Cl)cc2Cl)[nH]1 + Cc1nc(Nc2ncc(C(=O)Nc3c(C)cccc3Cl)s2)cc(N2CCN(CCO)CC2)n1 [Dasatinib] (partner 0.075 µM) ... true
3) Cc1cnc(-c2cnc(NCCNc3ccc(C#N)cn3)nc2-c2ccc(Cl)cc2Cl)[nH]1 + COc1cc2c(Oc3ccc(NC(=O)C4(C(=O)Nc5ccc(F)cc5)CC4)cc3F)ccnc2cc1OCCCN1CCOCC1 [Foretinib] (partner 0.25 µM) ... false
4) Cc1cnc(-c2cnc(NCCNc3ccc(C#N)cn3)nc2-c2ccc(Cl)cc2Cl)[nH]1 + CS(=O)(=O)N1CCN(Cc2cc3nc(-c4cccc5[nH]ncc45)nc(N4CCOCC4)c3s2)CC1 [Pictilisib] (partner 1 µM) ... false
5) O=c1[nH]c2ccccc2n1C1CCN(CCCC(c2ccc(F)cc2)c2ccc(F)cc2)CC1 [Pimozide] + Cc1cc(Nc2cc(N3CCN(C)CC3)nc(Sc3ccc(NC(=O)C4CC4)cc3)n2)n[nH]1 [Tozasertib] (partner 0.1 µM) ... true
6) O=c1[nH]c2ccccc2n1C1CCN(CCCC(c2ccc(F)cc2)c2ccc(F)cc2)CC1 [Pimozide] + CC(=O)c1c(C)c2cnc(Nc3ccc(N4CCNCC4)cn3)nc2n(C2CCCC2)c1=O [Palbociclib] (partner 0.5 µM) ... true
7) O=c1[nH]c2ccccc2n1C1CCN(CCCC(c2ccc(F)cc2)c2ccc(F)cc2)CC1 [Pimozide] + CS(=O)(=O)N1CCN(Cc2cc3nc(-c4cccc5[nH]ncc45)nc(N4CCOCC4)c3s2)CC1 [Pictilisib] (partner 1 µM) ... false

Now consider the entry below.
Lookup: Problem: For the compound O=c1[nH]c2ccccc2n1C1CCN(CCCC(c2ccc(F)cc2)c2ccc(F)cc2)CC1 [Pimozide] + NC(=O)Nc1cc(-c2cccc(F)c2)sc1C(=O)N[C@H]1CCCNC1 [AZD7762] (partner 0.2 µM) , is relative viability under 0.4?
Found: false

###

Test system: LC-2-ad
method.description: relative viability (nuclei count vs DMSO), 5 days (fraction); higher = more cells survive
experimental.context: first compound 0.1581 µM
Just a reminder that ties go to No: only relative viability strictly below 0.6 counts as Yes.

1) COc1cc2nccc(Oc3ccc(NC(=O)Nc4cc(C)on4)c(Cl)c3)c2cc1OC [Tivozanib] + COc1cccc2cc(-c3nc([C@H]4CC[C@H](C(=O)O)CC4)n4ncnc(N)c34)[nH]c12 [OSI-027] (partner 0.5 µM) ... No

Lookup: Dear colleague, could you confirm whether relative viability of COc1cc2nccc(Oc3ccc(NC(=O)Nc4cc(C)on4)c(Cl)c3)c2cc1OC [Tivozanib] + Cc1nc(NC(=O)N2CCC[C@H]2C(N)=O)sc1-c1ccnc(C(C)(C)C(F)(F)F)c1 [Alpelisib] (partner 2 µM) falls below 0.6? Thanks.
Found: No

Lookup: Another: Nc1ccn([C@@H]2O[C@H](CO)[C@@H](O)[C@@H]2O)c(=O)n1 [Cytarabine] + CS(=O)(=O)CCNCc1ccc(-c2ccc3ncnc(Nc4ccc(OCc5cccc(F)c5)c(Cl)c4)c3c2)o1 [Lapatinib] (partner 2 µM)
Found: Yes

Lookup: Continue with COc1cc2nccc(Oc3ccc(NC(=O)Nc4cc(C)on4)c(Cl)c3)c2cc1OC [Tivozanib] + Nc1ncn([C@H]2C[C@H](O)[C@@H](CO)O2)c(=O)n1 [Decitabine] (partner 2 µM)
Found: Yes

Lookup: Check Nc1ccn([C@@H]2O[C@H](CO)[C@@H](O)[C@@H]2O)c(=O)n1 [Cytarabine] + Cc1nc(NC(=O)N2CCC[C@H]2C(N)=O)sc1-c1ccnc(C(C)(C)C(F)(F)F)c1 [Alpelisib] (partner 2 µM) too.
Found: Yes

###

Tested on: SK-MES-1
method.description: relative viability (nuclei count vs DMSO), 5 days (fraction); higher = more cells survive
experimental.context: first compound 0.08 µM
measured.metric: relative viability
Number only, please.

1. O=c1[nH]c2ccccc2n1C1CCN(CCCC(c2ccc(F)cc2)c2ccc(F)cc2)CC1 [Pimozide] + Nc1nc2[nH]cc(CCc3ccc(C(=O)N[C@@H](CCC(=O)O)C(=O)O)cc3)c2c(=O)[nH]1 [Pemetrexed] (partner 0.2 µM) ... 0.982
2. Cc1cnc(-c2cnc(NCCNc3ccc(C#N)cn3)nc2-c2ccc(Cl)cc2Cl)[nH]1 + O=C(CCCCCCC(=O)Nc1ccccc1)NO [Vorinostat] (partner 1 µM) ... 1.07
3. Cc1cnc(-c2cnc(NCCNc3ccc(C#N)cn3)nc2-c2ccc(Cl)cc2Cl)[nH]1 + CCNC(=O)c1noc(-c2cc(C(C)C)c(O)cc2O)c1-c1ccc(CN2CCOCC2)cc1 [Luminespib] (partner 0.01 µM) ... 0.859

Lookup: I would be grateful if you could share the reported relative viability for O=c1[nH]c2ccccc2n1C1CCN(CCCC(c2ccc(F)cc2)c2ccc(F)cc2)CC1 [Pimozide] + CC(=O)Nc1cccc(-n2c(=O)n(C3CC3)c(=O)c3c(Nc4ccc(I)cc4F)n(C)c(=O)c(C)c32)c1 [Trametinib] (partner 0.02 µM) .
Found: 0.533

Lookup: Repeat for the following compound: Cc1cnc(-c2cnc(NCCNc3ccc(C#N)cn3)nc2-c2ccc(Cl)cc2Cl)[nH]1 + N=C(N)NC(=N)NCCc1ccccc1 [Phenformin] (partner 250 µM)
Found: 0.643

Lookup: Proceed to O=c1[nH]c2ccccc2n1C1CCN(CCCC(c2ccc(F)cc2)c2ccc(F)cc2)CC1 [Pimozide] + O=C(CCCCCCC(=O)Nc1ccccc1)NO [Vorinostat] (partner 1 µM)
Found: 1.13

Lookup: Entry to check: Cc1cnc(-c2cnc(NCCNc3ccc(C#N)cn3)nc2-c2ccc(Cl)cc2Cl)[nH]1 + CS(=O)(=O)CCNCc1ccc(-c2ccc3ncnc(Nc4ccc(OCc5cccc(F)c5)c(Cl)c4)c3c2)o1 [Lapatinib] (partner 2 µM)
Found: 0.514

Lookup: Can you check Cc1cnc(-c2cnc(NCCNc3ccc(C#N)cn3)nc2-c2ccc(Cl)cc2Cl)[nH]1 + CC1(C)CCC(c2ccc(Cl)cc2)=C(CN2CCN(c3ccc(C(=O)NS(=O)(=O)c4ccc(N[C@H](CCN5CCOCC5)CSc5ccccc5)c(S(=O)(=O)C(F)(F)F)c4)cc3)CC2)C1 [Navitoclax] (partner 0.5 µM) next?
Found: 1.19

Lookup: Now consider Cc1cnc(-c2cnc(NCCNc3ccc(C#N)cn3)nc2-c2ccc(Cl)cc2Cl)[nH]1 + O=C(c1cc(Cc2n[nH]c(=O)c3ccccc23)ccc1F)N1CCN(C(=O)C2CC2)CC1 [Olaparib] (partner 8 µM) and answer again.
Found: 0.734

###

Tested on: NCI-H838
method.description: relative viability (nuclei count vs DMSO), 5 days (fraction); higher = more cells survive
experimental.context: first compound 0.006325 µM
measured.metric: relative viability
Output spec: single numeric token, no unit.

Lookup: For CC(=O)O[C@@]12CO[C@@H]1C[C@H](O)[C@@]1(C)C(=O)[C@H](O)C3=C(C)[C@@H](OC(=O)[C@H](O)[C@@H](NC(=O)OC(C)(C)C)c4ccccc4)C[C@@](O)([C@@H](OC(=O)c4ccccc4)[C@H]21)C3(C)C [Docetaxel] + O=C(CCCCCCC(=O)Nc1ccccc1)NO [Vorinostat] (partner 1 µM) , what is its reported relative viability?
Found: 0.208

###

Form field: relative viability (one value per entry).
Tested on: A-427
method.description: relative viability (nuclei count vs DMSO), 5 days (fraction); higher = more cells survive
experimental.context: first compound 4 µM
Simply state the number, no unit and no words.

Examples with their reported relative viability follow.
1) Cc1sc2c(c1C)C(c1ccc(Cl)cc1)=N[C@@H](CC(=O)OC(C)(C)C)c1nnc(C)n1-2 [JQ1] + CCNC(=O)c1noc(-c2cc(C(C)C)c(O)cc2O)c1-c1ccc(CN2CCOCC2)cc1 [Luminespib] (partner 0.01 µM) ... 0.431
2) Cc1sc2c(c1C)C(c1ccc(Cl)cc1)=N[C@@H](CC(=O)OC(C)(C)C)c1nnc(C)n1-2 [JQ1] + CS(=O)(=O)N1CCN(Cc2cc3nc(-c4cccc5[nH]ncc45)nc(N4CCOCC4)c3s2)CC1 [Pictilisib] (partner 1 µM) ... 0.465
3) Cc1sc2c(c1C)C(c1ccc(Cl)cc1)=N[C@@H](CC(=O)OC(C)(C)C)c1nnc(C)n1-2 [JQ1] + N=C(N)NC(=N)NCCc1ccccc1 [Phenformin] (partner 250 µM) ... 0.228

Now let's try a different one.
Lookup: What measured relative viability is associated with Cc1sc2c(c1C)C(c1ccc(Cl)cc1)=N[C@@H](CC(=O)OC(C)(C)C)c1nnc(C)n1-2 [JQ1] + C[C@@H](Oc1cc(-c2cnn(C3CCNCC3)c2)cnc1N)c1c(Cl)ccc(F)c1Cl [Crizotinib] (partner 1 µM) on A-427?
Found: 0.516
